Would you kindly list IC50 for each of these compounds?
- Tested on: IL-1β production in PMA-differentiated THP-1 cells
- PROTOCOL TEXT: IL-1β production in PMA-differentiated THP-1 cells stimulated with gramicidin (hTHP-1 assay containing 2% fetal bovine serum; Procedures 1-3)
- Format: cell-based, human
- MEASUREMENT SETUP: Homo sapiens, THP-1, hTHP-1 assay containing 2% fetal bovine serum; class symbols; read-out: hTHP-1 IC50 (Average IC50 of compounds in hTHP-1 assay)
- Experimental: The following protocol is suitable for testing the activity of the compounds disclosed herein. Procedure 1: IL-1β Production in PMA-Differentiated THP-1 Cells Stimulated with Gramicidin […] THP-1 cells were treated with PMA (Phorbol 12-myristate 13-acetate) (20 ng/ml) for 16-18 hours. […] The plates were incubated for 18 h at 4° C. and read using the preset HTRF program (donor emission at 620 nm, acceptor emission at 668 nm) of the SpectraMax i3x spectrophotometer (Molecular Devices, software SoftMax 6). […]

Some solved cases for reference:
CC(C)(O)c1nc(CO)c(S(N)(=O)=NC(=O)Cc2c3c(cc4c2CCC4)CCC3)s1 (single isomer, unassigned) [Example 66] | 200 to 1000 nM
COCc1cc(C(C)C)c(CC(=O)N=S(N)(=O)c2cnc(C(C)(C)O)s2)c(C(C)C)c1 (stereo not shown) | 40 to 200 nM
CC(C)c1ncc(F)c(C(C)C)c1CC(=O)N=S(N)(=O)c1sc(C(C)(C)O)cc1F (stereo not shown) | 200 to 1000 nM

Proceeding to the next compound to report its IC50.
**Q:** Quick check: IC50 of COc1ccc(CNS(=O)(=NC(=O)Cc2c(C(C)C)cc(F)cc2C(C)C)c2ncc(C(C)(C)O)s2)cc1 (stereo not shown) ?
**A:** 5000 to 30000 nM

* * *

- System: IL-1β production in PMA-differentiated THP-1 cells
- PROTOCOL TEXT: IL-1β production in PMA-differentiated THP-1 cells stimulated with gramicidin (hTHP-1 assay containing 2% fetal bovine serum; Procedures 1-3)
- Type: cell-based, human
- MEASUREMENT SETUP: hTHP-1 assay containing 2% fetal bovine serum; class symbols; read-out: hTHP-1 IC50 (Average IC50 of compounds in hTHP-1 assay)
MEASURE NAME: IC50

For every item in the list below, what is its measured IC50?
1. CC(C)c1cc(C#N)cc(C(C)C)c1CC(=O)N=S(N)(=O)c1ccc(C(C)(C)O)cc1Cl (single isomer, unassigned)
2. CC(C)c1c(F)c(C#N)cc(C2CC2)c1CC(=O)N=S(N)(=O)c1sc(C(C)(C)O)cc1F (single isomer, unassigned)
3. CC(C)c1cc(C#N)cc(C(C)C)c1CC(=O)N=S(N)(=O)c1sc(C(C)(C)O)nc1CO (single isomer, unassigned)
4. CC(C)c1ccc(F)c(C(C)C)c1CC(=O)N=S(N)(=O)c1ccc(C(C)(C)O)s1 (single isomer, unassigned)
5. CC(C)c1cc(F)cc(C(C)C)c1CC(=O)N=S(N)(=O)c1sc(C(C)(C)O)cc1F (single isomer, unassigned)
6. CC(C)c1ccc(F)c(C(C)C)c1CC(=O)N=S(N)(=O)c1cc(C(C)(C)O)cs1 (single isomer, unassigned)

**A:**
1. 200 to 1000 nM
2. 8 to 40 nM
3. 200 to 1000 nM
4. 200 to 1000 nM
5. 8 to 40 nM
6. 40 to 200 nM

From: patent US11370763B2
